Test: In vitro enzyme assay to detect hydrolysis of chlorophenol red-beta-D-[…] directly proportional to the number of Toxoplasma stably expressing beta-galactosidase
Format: functional, organism-based, Toxoplasma gondii
Details: Toxoplasma gondii
pIC50: −log10 of the molar value.
MEASURE: pIC50

Observe how each entry below is paired with its result.
Lookup: Fill blank: measured pIC50 of the compound CN(CCNS(C)(=O)=O)CCSc1ccccc1 is ____.
Found: < 4.30

Lookup: Fill blank: measured pIC50 of the compound O=C(Nc1ccc(Br)cn1)C1CCCNC1 (stereo unspecified) is ____.
Found: < 4.30

Lookup: Fill blank: measured pIC50 of the compound O=C1NCCN(C(=O)c2ccc(Br)o2)C1c1cccs1 (stereo unspecified) is ____.
Found: < 4.30

Lookup: Fill blank: measured pIC50 of the compound c1ccc(C2CNCCCO2)cc1 (stereo unspecified) is ____.
Found: < 4.30

Lookup: Fill blank: measured pIC50 of the compound Cc1cc2cc(C(=O)N3CC[C@@H](N)[C@H](O)C3)ccc2o1 is ____.
Found: < 4.30

Now look at this entry.
Lookup: Fill blank: measured pIC50 of the compound COc1ccc(-c2ccccc2CCN)c(OC)c1OC is ____.
Found: 5.45

---

Assay: microbe, parasite or virus in culture
Settings: Mycobacterium tuberculosis, 96 h, read-out: pIC50 (converted)
Note to self: use condition met only for IC50 readings below 10 µM; a reading exactly at 10 µM still gets condition not met.

Lookup: Could you please tell me whether IC50 recorded for COc1coc(CN2CCCC(CCc3c(F)cccc3F)C2)cc1=O (stereo unspecified) is less than 10 µM?
Found: condition met

Lookup: Could you please tell me whether IC50 recorded for O[C@@H]1CNC[C@H]1n1ccnn1 is less than 10 µM?
Found: condition not met

Lookup: Could you please tell me whether IC50 recorded for COc1cccc(CN2CCC(CO)(Cc3ccc(Cl)cc3)CC2)c1O is less than 10 µM?
Found: condition not met

---

Test system: Schistosoma mansoni
Test: High throughput screening of compounds against Schistosoma mansoni motility
Format: functional
Design: dose or concentration left out as unconfirmed
Catalogue of compounds with associated Percent Effect
// units = %; emit number, no label

Observe how each entry below is paired with its result.
Lookup: Fill blank: measured Percent Effect of the compound CCOCCNc1nc(C2CCCC2)nc2c1cnn2C is ____.
Found: -80.64

Lookup: Fill blank: measured Percent Effect of the compound CCc1noc(C(C)N(C)CC(=O)Nc2c(C)cccc2C)n1 (stereo not drawn) is ____.
Found: -71

Lookup: Fill blank: measured Percent Effect of the compound O=C(CCCc1cn[nH]c1)N1CCOCC(O)C1 (stereo not drawn) is ____.
Found: -19.59

More entries:
Lookup: Fill blank: measured Percent Effect of the compound CSCCCNC(=O)Nc1cccc(-c2nccn2C)c1 is ____.
Found: -33.04

Lookup: Fill blank: measured Percent Effect of the compound O=C(NCCn1ccc(-c2ccccn2)n1)c1ccncc1 is ____.
Found: -46.65

Lookup: Fill blank: measured Percent Effect of the compound CC(C)c1n[nH]c(C2CN(C(=O)CCCn3cccn3)CCO2)n1 (stereo not drawn) is ____.
Found: 21.88

Lookup: Fill blank: measured Percent Effect of the compound O=C(Cc1cccs1)NC1CCN(c2cccc(F)c2)CC1 is ____.
Found: -37.43

Lookup: Fill blank: measured Percent Effect of the compound O=c1nc(SCc2cccnc2)c2c(n1CCO)CCC2 is ____.
Found: -102.8

Lookup: Fill blank: measured Percent Effect of the compound NC(=O)CSCCC(=O)N1CCCC1c1ccsc1 (stereo not drawn) is ____.
Found: 10.97

Lookup: Fill blank: measured Percent Effect of the compound Cc1ccc(NC(C)C(=O)NCc2cccs2)cc1C (stereo not drawn) is ____.
Found: -60.11

Lookup: Fill blank: measured Percent Effect of the compound O=C(Nc1cccc(CN2CCOC2=O)c1)N1CCSCC1 is ____.
Found: -6.059

Lookup: Fill blank: measured Percent Effect of the compound CC(C)(C(=O)NCC1CC1)c1ccccc1F is ____.
Found: 9.48

Lookup: Fill blank: measured Percent Effect of the compound CN(Cc1ccccc1)CC1(O)CCCN(CC(C)(C)C)C1=O (stereo not drawn) is ____.
Found: 9.775

---

Catalogue of molecules with associated IC50
Test: microbe, parasite or virus in culture
Settings: Mycobacterium tuberculosis, 72 h, read-out: pIC50 (converted)

Lookup: Fill blank: measured IC50 of the molecule COc1ncccc1CN(C)C(=O)c1ccccc1F is ____.
Found: > 501 µM

Lookup: Fill blank: measured IC50 of the molecule CCC(C)NC(=O)Cc1ccc2c(c1)OCCO2 (stereo unspecified) is ____.
Found: > 501 µM

Lookup: Fill blank: measured IC50 of the molecule COc1ccc(C(=O)N(C)CCn2cccn2)cc1 is ____.
Found: > 501 µM

Lookup: Fill blank: measured IC50 of the molecule CN(C)S(=O)(=O)c1ccc(CN2CCC(C(N)=O)CC2)o1 is ____.
Found: > 50.1 µM

Lookup: Fill blank: measured IC50 of the molecule COCCC(C)NC(=O)Nc1ccc(N2CCOC2=O)c(OC)c1 (stereo unspecified) is ____.
Found: > 50.1 µM

More entries:
Lookup: Fill blank: measured IC50 of the molecule CCc1nc(CN2CCCN(Cc3noc(C4CC4)n3)CC2)cs1 is ____.
Found: > 50.1 µM

---

Catalogue of compounds with associated pIC50
Test system: Plasmodium falciparum
Assay: Calibr Malaria Delayed Death Assay SOP
Type: functional, organism-based
Conditions: Plasmodium falciparum
Notebook: values listed as pIC50 are -log10 of the concentration (mol/L).

Lookup: Fill blank: measured pIC50 of the compound CCOc1ccc(CN2CCCC(c3cc4ncccc4[nH]3)C2)cc1 (centres undefined) is ____.
Found: 6.07

---

Assay: microbe, parasite or virus in culture
Details: Mycobacterium tuberculosis, 96 h, read-out: pIC50 (converted)
MEASURE: IC50

Lookup: Fill blank: measured IC50 of the compound CN(C)CC(=O)N1CCC2(CCc3cc(-c4cccnc4)ccc32)CC1 is ____.
Found: > 50.1 µM

Lookup: Fill blank: measured IC50 of the compound Cc1cccc(NC(=O)NCc2c(C)noc2C)n1 is ____.
Found: > 501 µM

Lookup: Fill blank: measured IC50 of the compound Cc1noc(C)c1CNC(=O)c1csc(S(N)(=O)=O)c1 is ____.
Found: > 501 µM

Lookup: Fill blank: measured IC50 of the compound Cn1cccc1C(=O)N1CCN2C[C@H](Oc3cccnc3)C[C@H]2C1 is ____.
Found: > 50.1 µM

Now look at this entry.
Lookup: Fill blank: measured IC50 of the compound CCOC(=O)c1ccc(CN2CCOCC2)cn1 is ____.
Found: > 501 µM

---

Assay: microbe, parasite or virus in culture
Settings: Mycobacterium tuberculosis, 96 h, read-out: pIC50 (converted)
Catalogue of compounds with associated IC50

Lookup: Fill blank: measured IC50 of the compound CSc1cccc(CN(C)C(=O)CNC2CC2)c1 is ____.
Found: > 501 µM

Lookup: Fill blank: measured IC50 of the compound Cc1cc(N2CCN(C(=O)Cc3ccc4c(c3)OCO4)CC2)cc(C)n1 is ____.
Found: > 50.1 µM

Lookup: Fill blank: measured IC50 of the compound CN(C)c1ccc(C(=O)N2CCCC2c2ccc(Cl)cc2)nn1 (centres undefined) is ____.
Found: > 50.1 µM

Lookup: Fill blank: measured IC50 of the compound CC(NC(=O)CCNC(=O)c1ccco1)c1cccs1 (centres undefined) is ____.
Found: > 501 µM

---

Assay: In vitro enzyme assay to detect hydrolysis of chlorophenol red-beta-D-[…] directly proportional to the number of Toxoplasma stably expressing beta-galactosidase
Type: functional, organism-based, Toxoplasma gondii
Details: Toxoplasma gondii
MEASURE: IC50

Observe how each entry below is paired with its result.
Lookup: Fill blank: measured IC50 of the compound CCOCCCNC(=O)c1nnn(Cc2ccccc2)c1OC is ____.
Found: > 50.1 µM

Lookup: Fill blank: measured IC50 of the compound COc1ccc(CC(=O)NCC2CCCNC2)cc1F (stereo not drawn) is ____.
Found: > 50.1 µM

More entries:
Lookup: Fill blank: measured IC50 of the compound NCCc1cc(-c2ccncc2)[nH]n1 is ____.
Found: > 50.1 µM

---

Assay: microbe, parasite or virus in culture
Conditions: Mycobacterium tuberculosis, 96 h, read-out: pIC50 (converted)
MEASURE: IC50

Lookup: Fill blank: measured IC50 of the compound CCc1ccc(S(=O)(=O)N(C)CC(N)=O)s1 is ____.
Found: > 501 µM

---

System: Schistosoma mansoni
Test: High throughput screening of compounds against Schistosoma mansoni motility
Assay type: functional
Design: dose or concentration left out as unconfirmed
Label 1 (yes) for high-side Percent Effect (at or above -30%) and 0 (no) for low-side Percent Effect (below it).

// below: answered molecules
Lookup: Decide: Percent Effect of CC1CCCN(CCNC(=O)c2cncnc2C(C)C)C1 (stereo not drawn) >= -30%?
Found: 1 (yes)

Lookup: Decide: Percent Effect of Cc1cc(C[C@@H]2COC[C@@H]2NC(=O)CN2CCCN(C)CC2)on1 >= -30%?
Found: 1 (yes)

Lookup: Decide: Percent Effect of O=C(CN1CCCC1Cn1cncn1)Nc1cccnc1 (stereo not drawn) >= -30%?
Found: 1 (yes)

Lookup: Decide: Percent Effect of COc1ccc(CNC(=O)NC2CCC(O)CC2)c(C(F)(F)F)c1 (stereo not drawn) >= -30%?
Found: 1 (yes)

More entries:
Lookup: Decide: Percent Effect of O=C(c1cn(-c2cc(N3CCSCC3)ncn2)cn1)N1CCSCC1 >= -30%?
Found: 0 (no)

Lookup: Decide: Percent Effect of CS(=O)(=O)c1ccc(CNCC2CCN(CCO)CC2)cc1 >= -30%?
Found: 0 (no)

Lookup: Decide: Percent Effect of COc1ccc(CNC(=O)NCC2CCOC2)c(C(F)(F)F)c1 (stereo not drawn) >= -30%?
Found: 0 (no)

Lookup: Decide: Percent Effect of OCC1CCCN1c1cc(NCCNc2ccccn2)ncn1 (stereo not drawn) >= -30%?
Found: 0 (no)

Lookup: Decide: Percent Effect of CN(CCCNc1cc(N2CCCC2CO)ncn1)S(C)(=O)=O (stereo not drawn) >= -30%?
Found: 0 (no)

Lookup: Decide: Percent Effect of COCCn1ccnc1C1CCCN(C(=O)CSCC2CC2)C1 (stereo not drawn) >= -30%?
Found: 1 (yes)

Lookup: Decide: Percent Effect of NC(=O)COc1cccc(C(=O)Nc2cnc3n2CCCC3)c1 >= -30%?
Found: 1 (yes)

Lookup: Decide: Percent Effect of CCN1CCCC1CN(CCN(C)C)S(=O)(=O)c1ccc(C#N)cc1 (stereo not drawn) >= -30%?
Found: 1 (yes)

Lookup: Decide: Percent Effect of Cc1ccn(-c2ccccc2NCc2ccccn2)n1 >= -30%?
Found: 1 (yes)

Lookup: Decide: Percent Effect of Cc1nc(C)n(CC2CCCN2CC(=O)NCCc2ccccc2)n1 (stereo not drawn) >= -30%?
Found: 1 (yes)

Lookup: Decide: Percent Effect of O=C1OCCN1CCOc1nc(-c2ccccc2Cl)no1 >= -30%?
Found: 0 (no)

Lookup: Decide: Percent Effect of CN(C)Cc1nnc(C2CCN(c3nccc(N)n3)CC2)n1C1CC1 >= -30%?
Found: 1 (yes)

Lookup: Decide: Percent Effect of CC(C)NC(=O)c1nnn(-c2cccc(C(F)(F)F)c2)c1C1CC1 >= -30%?
Found: 0 (no)

Lookup: Decide: Percent Effect of O=C(CCc1cscn1)NS(=O)(=O)c1ccc2ccccc2c1 >= -30%?
Found: 1 (yes)

Lookup: Decide: Percent Effect of O=C1CCC2(CCN(Cc3cc(F)cc(F)c3)CC2)CN1CCO >= -30%?
Found: 1 (yes)

Lookup: Decide: Percent Effect of CN(Cc1cnn(C)c1)C(=O)NC1CCC(O)CC1 (stereo not drawn) >= -30%?
Found: 1 (yes)
